- assay comment: MTT cell viability assay
- details: African green monkey, Vero cells
Overview of recorded CC50 at 24 h for various compounds

# compound, CC50 at 24 h (µM)
measured = [
    ("CCCC(CCC)C(=O)O", 50000),
    ("C/C=C/C/C=C/CCC(=O)[C@H]1O[C@H]1C(N)=O", 45),
    ("CCCCCCCCCCCCOC(=O)c1cc(O)c(O)c(O)c1 [LG, lauryl gallate]", 45),
]

====

- Test system: ASFV Ba71V
- assay comment: microbe, parasite or virus in culture
- Format: cell-based, African swine fever virus
- details: African swine fever virus, Vero, 24 h, read-out: IC50 on virus yield
pIC50: −log10 of the molar value.

# molecule, pIC50
measured = [
    ("CCCCCCCCCCCCOC(=O)c1cc(O)c(O)c(O)c1 [LG, lauryl gallate]", 6.00),
]

====

Overview of recorded CC50 at 24 h for various compounds
- assay comment: MTT cell viability assay
- details: hamster, BHK cells

# compound, u, CC50 at 24 h
rows = [
    ("CCCCCCCCCCCCOC(=O)c1cc(O)c(O)c(O)c1 [LG, lauryl gallate]", "µM", 75),
    ("C/C=C/C/C=C/CCC(=O)[C@H]1O[C@H]1C(N)=O", "µM", 60),
]

====

- System: FMDV O-UK
- assay comment: microbe, parasite or virus in culture
- Type: cell-based, foot and mouth disease virus
- details: Foot-and-mouth disease virus, read-out: IC50 on virus yield

# compound, IC50 (µM)
rows = [
    ("CCCCCCCCCCCCOC(=O)c1cc(O)c(O)c(O)c1 [LG, lauryl gallate]", 0.7),
]

====

- assay comment: MTT cell viability assay
- details: African green monkey, COS cells
Overview of recorded CC50 at 24 h for various compounds
measured quantity: CC50 at 24 h (µM)

# compound, observed measurement
measured = [
    ("C/C=C/C/C=C/CCC(=O)[C@H]1O[C@H]1C(N)=O", 60),
    ("CCCCCCCCCCCCOC(=O)c1cc(O)c(O)c(O)c1 [LG, lauryl gallate]", 33),
]
